Listing of entries alongside the reported inhibition at 10 µM.
ASSAY_SYSTEM: 5-HT reuptake (5-HT transporter) (Rattus norvegicus, UniProt P31652)
Construct: from tissue; host or cells: Wistar rat brain (procerebrum; crude synaptosomal supernatant)
Sequence (P31652 whole entry): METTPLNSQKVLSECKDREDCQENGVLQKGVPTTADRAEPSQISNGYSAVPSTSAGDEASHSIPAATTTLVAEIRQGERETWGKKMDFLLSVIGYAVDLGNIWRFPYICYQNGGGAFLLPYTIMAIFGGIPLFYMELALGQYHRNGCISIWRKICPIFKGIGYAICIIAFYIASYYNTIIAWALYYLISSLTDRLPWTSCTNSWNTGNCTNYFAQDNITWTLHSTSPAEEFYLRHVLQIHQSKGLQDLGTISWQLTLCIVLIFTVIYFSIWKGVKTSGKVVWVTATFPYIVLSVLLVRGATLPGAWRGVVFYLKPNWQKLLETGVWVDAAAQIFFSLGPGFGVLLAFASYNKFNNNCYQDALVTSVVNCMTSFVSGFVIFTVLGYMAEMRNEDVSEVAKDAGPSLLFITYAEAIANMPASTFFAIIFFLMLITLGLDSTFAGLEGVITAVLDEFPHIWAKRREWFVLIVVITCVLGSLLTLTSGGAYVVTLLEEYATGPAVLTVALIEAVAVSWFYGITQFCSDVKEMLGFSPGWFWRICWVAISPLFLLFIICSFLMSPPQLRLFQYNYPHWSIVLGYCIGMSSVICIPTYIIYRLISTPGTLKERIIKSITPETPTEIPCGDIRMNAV
EXPERIMENT_DESCRIPTION: Inhibition of 5-HT reuptake in rat brain synaptosome (3H-5-HT uptake)
Type: biochemical
MEASUREMENT_CONTEXT: 10 μM, read-out: 5-HT reuptake percent inhibition

// known answers, use as guide
STRUCTURE_AS_SMILES: Clc1cccc(/C(=N\Cc2ccccc2)N2CCNCC2)c1
VALUE: 58%

STRUCTURE_AS_SMILES: O=[N+]([O-])c1ccc(/C(=N\Cc2cccc3ccccc23)N2CCNCC2)cc1
VALUE: 57%

Turning now to a further compound:
Request: Tell me reported inhibition at 10 µM for `Fc1ccccc1/C(=N\Cc1cccc2ccccc12)N1CCNCC1` , tested with 5-HT reuptake (5-HT transporter) (Rattus norvegicus, UniProt P31652).
Result: 90%
